TEST SUMMARY: Clearance in Han Wistar rat at 0.90 micromol/kg, iv by LC-MS/MS analysis
Type: ADME, organism-based
STATED CONDITIONS: in vivo, dose 0.9 µmol/kg
ENDPOINT LABEL: clearance (mL/min/kg)
The figure you give is taken to be in mL/min/kg; do not add the unit.

The value of clearance measured for the molecule `COc1cc(C#N)c(O[C@H]2CC[C@@](C)(C(=O)O)CC2)cc1C(=O)N[C@@H]1[C@H]2CC[C@H](C2)[C@@H]1C(=O)NC12CC(F)(C1)C2` turned out to be 59

====

TEST SUMMARY: Metabolic stability in human hepatocytes assessed as unbound intrinsic clearance measured per 10^6 viable cells/ml at 1 uM measured upto 120 mins by LC-MS/MS analysis
Assay type: ADME, cell-based, Hepatocyte
STATED CONDITIONS: 2 h
Quick list: CL free per entry.
Express the result in µL/min but write the number alone.

Completed entries (count: 5):
• COCc1cc(OC)c(C(=O)N[C@@H]2[C@H]3CC[C@H](C3)[C@@H]2C(=O)NCC2(C)CCC2)cc1O[C@H]1CC[C@@](C)(C(=O)O)CC1 = 44
• COc1cc(C#N)c(O[C@H]2CC[C@@](C)(C(=O)O)CC2)cc1C(=O)N[C@@H]1[C@H]2CC[C@H](C2)[C@@H]1C(=O)NC12CC(F)(C1)C2 = 2.6
• COc1cc(C)c(O[C@H]2CC[C@@](C)(C(=O)O)CC2)cc1C(=O)N[C@@H]1[C@H]2CC[C@H](C2)[C@@H]1C(=O)NCC1(C)CCC1 = 4.9
• CC1(CNC(=O)[C@H]2[C@@H]3CC[C@@H](C3)[C@H]2NC(=O)c2cc(O[C@H]3CC[C@@](C)(C(=O)O)CC3)ccn2)CCC1 = 3.3
• COc1cc(F)c(O[C@H]2CC[C@@](C)(C(=O)O)CC2)cc1C(=O)N[C@@H]1[C@H]2CC[C@H](C2)[C@@H]1C(=O)NCC(C)(C)C(F)(F)F = 8.6

Shift focus to the following entry.
Record `COc1cc(F)c(O[C@H]2CC[C@](C(=O)O)(C(F)(F)F)CC2)cc1C(=O)N[C@@H]1[C@H]2CC[C@H](C2)[C@@H]1C(=O)NCC1(C)CCC1` . Reported CL free: 8.8

====

TESTED ON: Relaxin receptor 1 (Homo sapiens)
Sequence (Q9HBX9 whole entry): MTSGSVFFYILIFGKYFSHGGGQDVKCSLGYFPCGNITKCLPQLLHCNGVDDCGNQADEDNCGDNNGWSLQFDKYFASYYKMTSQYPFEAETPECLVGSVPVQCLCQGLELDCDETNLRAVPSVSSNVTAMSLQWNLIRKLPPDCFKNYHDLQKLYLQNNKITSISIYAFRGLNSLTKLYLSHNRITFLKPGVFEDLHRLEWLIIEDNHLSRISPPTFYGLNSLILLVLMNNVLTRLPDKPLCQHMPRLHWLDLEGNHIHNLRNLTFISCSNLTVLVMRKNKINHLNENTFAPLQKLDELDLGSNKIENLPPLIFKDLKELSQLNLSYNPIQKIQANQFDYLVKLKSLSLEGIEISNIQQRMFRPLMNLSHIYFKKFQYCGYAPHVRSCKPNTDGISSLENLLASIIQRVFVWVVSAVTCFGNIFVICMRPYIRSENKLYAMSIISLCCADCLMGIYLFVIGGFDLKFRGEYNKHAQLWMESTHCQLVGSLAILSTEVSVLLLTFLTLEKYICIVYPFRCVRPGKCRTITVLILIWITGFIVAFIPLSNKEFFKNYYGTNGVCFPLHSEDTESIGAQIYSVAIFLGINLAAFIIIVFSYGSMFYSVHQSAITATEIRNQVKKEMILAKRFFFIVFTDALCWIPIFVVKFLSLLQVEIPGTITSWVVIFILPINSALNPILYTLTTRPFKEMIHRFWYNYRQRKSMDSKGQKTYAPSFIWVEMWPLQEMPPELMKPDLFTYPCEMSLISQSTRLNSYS
TEST SUMMARY: Agonist activity at human RXFP1 expressed in CHO-K1 cells assessed as dynamic mass redistribution (DMR) measured after 60 mins pretreated with PTX by G-protein coupling DMR assay
ENDPOINT LABEL: EC50 (nM)
The figure you give is taken to be in nM; do not add the unit.

The value of EC50 measured for the compound `COc1cc(F)c(O[C@H]2CC[C@@](C)(C(=O)O)CC2)cc1C(=O)N[C@@H]1[C@H]2CC[C@H](C2)[C@@H]1C(=O)Nc1ccc(F)c(S(F)(F)(F)(F)F)c1` turned out to be 0.02

====

TEST SUMMARY: Metabolic stability in human hepatocytes assessed as intrinsic clearance measured per 10^6 viable cells/ml at 1 uM measured upto 120 mins by LC-MS/MS analysis
Type: ADME, cell-based, Hepatocyte
STATED CONDITIONS: read-out: CLH
ENDPOINT LABEL: hepatocyte CLint at 1 µM (µL/min/1e6 cells)
Expressed in µL/min/1e6 cells, but write only the number.

Answered examples (3):
- COc1cc(Cl)c(O[C@H]2CC[C@@](C)(C(=O)O)CC2)cc1C(=O)N[C@@H]1[C@H]2CC[C@H](C2)[C@@H]1C(=O)NCC1(C)CCC1: 4.8
- COc1cc(F)c(C[C@H]2CC[C@@](C)(C(=O)O)CC2)cc1C(=O)N[C@@H]1[C@H]2CC[C@H](C2)[C@@H]1C(=O)NCC1(C)CCC1: 9.8
- COc1cc(F)c(O[C@H]2CC[C@@](CO)(C(=O)O)CC2)cc1C(=O)N[C@@H]1[C@H]2CC[C@H](C2)[C@@H]1C(=O)NCC1(C)CCC1: 6.2

// moving on: another record for hepatocyte CLint at 1 µM
// recorded hepatocyte CLint at 1 µM for `COc1cc(S(C)(=O)=O)c(O[C@H]2CC[C@@](C)(C(=O)O)CC2)cc1C(=O)N[C@@H]1[C@H]2CC[C@H](C2)[C@@H]1C(=O)NCC1(C)CCC1` : 1.2

// data source = ChEMBL document CHEMBL5518236
